Below are IC50 values measured for Acetylcholinesterase (Homo sapiens, UniProt P22303).
parameter measured: IC50 (µM)

molecule: CC(=O)Oc1cccc2nc3c(OC(C)=O)ccc(C/C=C(\C)CCC=C(C)C)c3nc12
parameter measured: IC50
censoring qualifier: =
test value: 2.01

molecule: CC(C)=CCC/C(C)=C/Cc1ccc(O)c2nc3cccc(O)c3nc12
parameter measured: IC50
censoring qualifier: =
test value: 2.62

molecule: O=C(O)c1cccc2nc3ccccc3nc12
parameter measured: IC50
censoring qualifier: >
test value: 50

molecule: CC(C)=CCc1cccc2nc3cccc(C(=O)O)c3nc12 [ENDOPHENAZINE A]
parameter measured: IC50
censoring qualifier: >
test value: 50

molecule: Oc1ccc2nc3ccccc3nc2c1
parameter measured: IC50
censoring qualifier: >
test value: 50

molecule: Oc1cccc2nc3c(O)cccc3nc12
parameter measured: IC50
censoring qualifier: =
test value: 4.52

molecule: CC(C)=CCc1cc(=O)cc2n(C)c3cccc(C(=O)O)c3nc1-2 [ENDOPHENAZINE B]
parameter measured: IC50
censoring qualifier: >
test value: 50
